biological target: Meditope enabled Clivatuzumab; assay: BLI Octet, antibody on anti-human Fc tip, peptide […]
Sequence (chain, as listed by the source, chain 1 of 2): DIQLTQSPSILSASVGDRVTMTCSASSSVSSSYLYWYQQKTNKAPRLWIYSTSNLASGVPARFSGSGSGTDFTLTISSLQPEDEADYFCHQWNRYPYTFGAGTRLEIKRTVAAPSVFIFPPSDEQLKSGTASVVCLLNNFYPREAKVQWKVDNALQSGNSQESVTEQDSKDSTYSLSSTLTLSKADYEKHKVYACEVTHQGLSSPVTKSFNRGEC
Sequence (chain, as listed by the source, chain 2 of 2): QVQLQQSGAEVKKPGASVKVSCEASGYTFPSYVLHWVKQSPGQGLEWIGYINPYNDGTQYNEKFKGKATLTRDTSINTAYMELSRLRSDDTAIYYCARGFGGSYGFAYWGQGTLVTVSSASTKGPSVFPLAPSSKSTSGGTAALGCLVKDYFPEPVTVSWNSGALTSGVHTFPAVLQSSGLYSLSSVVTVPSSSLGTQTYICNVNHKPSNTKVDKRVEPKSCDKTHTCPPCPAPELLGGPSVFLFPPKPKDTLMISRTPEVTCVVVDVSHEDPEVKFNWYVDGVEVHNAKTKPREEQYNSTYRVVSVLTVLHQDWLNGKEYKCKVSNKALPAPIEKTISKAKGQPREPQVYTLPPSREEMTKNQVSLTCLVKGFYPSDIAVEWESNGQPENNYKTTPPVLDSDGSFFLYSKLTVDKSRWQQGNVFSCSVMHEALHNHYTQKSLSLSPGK
MEASURED PROPERTY: pKd
// returns pKd (minus log10 of molar concentration), number only

Record CQFDLSTRRLRC (modifications not checked) [Peptide 22: DM1 conjugated cQFD (cQFD-DM1)] . Reported pKd: 5.50

These entries and their values trace back to patent US20190111149A1.
